Listed molecules paired with reported z-score
test: DUSP6 inhibitors restoring Erk phosphorylation by chemical complementation, primary imaging in DUSP6-transfected HeLa (AID 609); conditions: HeLa MKP-3 transfected, phospho-Erk imaging KS statistic; measured here: nuclear pErk red intensity z-score; at 10 µM; stronger effect = higher value; cells stimulated with TPA for 15 min
measurement type: z-score

molecule	result value
CCOC(=O)c1[nH]c2ccc(Br)cc2c1NC(=O)CCN1CCN(C(=O)OCC)CC1	-0.0275
CCOC(=O)c1cnc(SC2CC(=O)N(c3cccc(OC)c3)C2=O)nc1N (configuration not stated)	-0.161
COC(=O)c1cc(Br)c(=O)n(Cc2cccnc2)c1	-1.83
CCC1CCCCN1c1nc(-c2ccncc2)nc2ccccc12 (configuration not stated)	0.299
COC(=O)C(NC(C)=O)(Nc1nc2ccc(S(C)(=O)=O)cc2s1)C(F)(F)F (configuration not stated)	0.313
CCCN(CCC)C(=O)C(CCC(=O)O)NC(=O)c1ccccc1 (configuration not stated)	-0.876
CCOC(=O)N1CCN(C(=O)c2cn(CC)c3cc(N4CCN(C)CC4)c(F)cc3c2=O)CC1	-1.34
CCCCCn1c2nc3ccccc3nc2c2c(=O)n(CC(C)C)cnc21	1.53
C=CCc1ccccc1OCC(O)CNC(C)C (configuration not stated)	-0.961
N#CC1=C(N)C(C#N)(C#N)[C@H](c2ccncc2)[C@H]2CN(C(=O)OCc3ccccc3)CC=C12	-0.0209
COc1ccccc1-c1nnc2sc(COc3ccccc3)nn12	2.54
Cc1ccc(/C=c2\sc3n(c2=O)CN(c2ccc(Br)cc2)CN=3)o1	-1.08
CC(C)OC(=O)c1nn2c(C(F)(F)F)cc(-c3ccc(Br)o3)nc2c1Br	1.66
CC(=O)OC(C)C[N+](C)(C)C (configuration not stated)	-1.46
O=C(O)c1ccccc1Nc1cccc(C(F)(F)F)c1	-1.06
CCCOc1ccc(C2NC(=O)NC2=O)cc1 (configuration not stated)	0.505
CN1C(=S)SC(N(O)C(=O)Nc2ccccc2)C1(C)C (configuration not stated)	0.0884
COc1cccc2c1C(=O)c1c(O)c3c(c(O)c1C2=O)C[C@@](O)(C(=O)CO)C[C@@H]3O[C@H]1C[C@H](N)[C@H](O)[C@H](C)O1	3.82
CC1CN(C2CCN(S(=O)(=O)Cc3ccccc3)CC2)CC(C)O1 (configuration not stated)	0.176
CSC1=C(C#N)C(C)CC(=O)N1 (configuration not stated)	0.604
CCOc1ccc(/C(O)=C2/C(=O)C(=O)N(CCN(C)C)C2c2ccccc2)cc1Cl (configuration not stated)	-1.22
Cc1cc(C)n(C(=O)CNC(=O)CCc2ccccc2)n1	-0.0899

Data origin, for the record: PubChem BioAssay
